src = the supplement of paper PMC10883282

System: SK-LMS-1
Experiment: relative viability vs DMSO control (72 h) (fraction); higher = more viable cells
Details: 0.00017 µM
measured-property: relative viability

[[record]]
compound = "CC(=O)c1c(C)c2cnc(Nc3ccc(N4CCNCC4)cn3)nc2n(C2CCCC2)c1=O [Palbociclib]"
measured_target = "SK-LMS-1"
endpoint_result = 1.05

[[record]]
compound = "COc1cc2ncnc(Nc3ccc(F)c(Cl)c3)c2cc1OCCCN1CCOCC1 [Gefitinib]"
measured_target = "SK-LMS-1"
endpoint_result = 1.07

[[record]]
compound = "CNC(=O)c1cccc2cc(Oc3ccnc4cc(OCC5(N)CC5)c(OC)cc34)ccc12 [Lucitanib]"
measured_target = "SK-LMS-1"
endpoint_result = 1.07

[[record]]
compound = "C=CC(=O)N1CCC(CNc2ncnc(N)c2-c2ccc(Oc3ccccc3)cc2)CC1 [Evobrutinib]"
measured_target = "SK-LMS-1"
endpoint_result = 1.08

[[record]]
compound = "O=C1CCc2c(Oc3ccc4c(c3)[C@@H]3[C@H](O4)[C@H]3c3nc4cc(C(F)(F)F)ccc4[nH]3)ccnc2N1 [Lifirafenib]"
measured_target = "SK-LMS-1"
endpoint_result = 1.04

[[record]]
compound = "C[C@@H]1CN(C(=O)c2ccc(NC(=O)c3cc(O[C@H](C)c4c(Cl)ccc(F)c4Cl)c(N)nn3)cc2)C[C@H](C)N1 [Ensartinib]"
measured_target = "SK-LMS-1"
endpoint_result = 0.995

[[record]]
compound = "CN(C)CCCOc1ccc(-c2ccc3ncc4c(c3c2)n(C2CCOCC2)c(=O)n4C)cn1 [AZD-0156]"
measured_target = "SK-LMS-1"
endpoint_result = 0.969

[[record]]
compound = "C#Cc1cccc(Nc2ncnc3cc4c(cc23)OCCOCCOCCO4)c1 [Icotinib]"
measured_target = "SK-LMS-1"
endpoint_result = 1.08

